What viability, T/C was measured for each of the following?
# System: 885512-296-R-J2-PDC complex spheroid growth, % test/control
# measurement-description: Anticancer human tumor 885512-296-R-J2-PDC patient-derived breast carcinoma cell line growth inhibition [Asc]
# test-parameters: second compound 10 µM; first compound 0.316 µM; stronger effect = lower value
Numbers only, in %.

CCN1CCN(Cc2ccc(Nc3ncc(F)c(-c4cc(F)c5nc(C)n(C(C)C)c5c4)n3)nc2)CC1 + Cc1c(S(C)(=O)=O)c(-c2cc(F)cc(N3CCN(c4ccc(NS(=O)(=O)c5ccc(NC(CCN6CCC(C(=O)OCCCP(=O)(O)O)CC6)CSc6ccccc6)c(S(=O)(=O)C(F)(F)F)c5)cc4)CC3)c2)c(-c2ccc(Cl)cc2)n1C(C)C :: 125

// next item, viability, T/C requested
Reported viability, T/C for COc1c(OCCCN2CCOCC2)ccc2c3n(c(=NC(=O)c4cnc(N)nc4)nc12)CCN3 + Cc1c(S(C)(=O)=O)c(-c2cc(F)cc(N3CCN(c4ccc(NS(=O)(=O)c5ccc(NC(CCN6CCC(C(=O)OCCCP(=O)(O)O)CC6)CSc6ccccc6)c(S(=O)(=O)C(F)(F)F)c5)cc4)CC3)c2)c(-c2ccc(Cl)cc2)n1C(C)C : what is it?
40.7

----------
# System: 885512-296-R-J2-PDC complex spheroid growth, % test/control
# measurement-description: Anticancer human tumor 885512-296-R-J2-PDC cell line growth inhibition [Asc];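 further: spheroids exposed to compounds for seven days; 100% = DMSO vehicle control wells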
# test-parameters: second compound 1 µM; first compound 0.1 µM; stronger effect = lower value
measurement-name: viability, T/C (%)
Answers are plain numbers, in %.

The cases that follow already have their viability, T/C on record.
CCN1CCN(Cc2ccc(Nc3ncc(F)c(-c4cc(F)c5nc(C)n(C(C)C)c5c4)n3)nc2)CC1 + Cc1c(S(C)(=O)=O)c(-c2cc(F)cc(N3CCN(c4ccc(NS(=O)(=O)c5ccc(NC(CCN6CCC(C(=O)OCCCP(=O)(O)O)CC6)CSc6ccccc6)c(S(=O)(=O)C(F)(F)F)c5)cc4)CC3)c2)c(-c2ccc(Cl)cc2)n1C(C)C :: 76.3
O=C(c1cc(Cc2n[nH]c(=O)c3ccccc23)ccc1F)N1CCN(C(=O)C2CC2)CC1 + CNC(C)C(=O)NC1CN(S(=O)(=O)c2cccc(S(=O)(=O)N3CCC4CCC(C(=O)NC(c5ccccc5)c5ccccc5)N4C(=O)C(NC(=O)C(C)NC)C3)c2)CCC2CCC(C(=O)NC(c3ccccc3)c3ccccc3)N2C1=O :: 97.8
NC1CCC(NC2CC2c2ccccc2)CC1 (centres undefined) + Cc1c(S(C)(=O)=O)c(-c2cc(F)cc(N3CCN(c4ccc(NS(=O)(=O)c5ccc(NC(CCN6CCC(C(=O)OCCCP(=O)(O)O)CC6)CSc6ccccc6)c(S(=O)(=O)C(F)(F)F)c5)cc4)CC3)c2)c(-c2ccc(Cl)cc2)n1C(C)C :: 121

// next item, viability, T/C requested
Reported viability, T/C for C=C(F)C(=O)N1CCN(c2nc(OCC3CCCN3C)nc3c2CCN(c2cccc4cccc(Cl)c24)C3)CC1CC#N (centres undefined) + CNC(C)C(=O)NC1CN(S(=O)(=O)c2cccc(S(=O)(=O)N3CCC4CCC(C(=O)NC(c5ccccc5)c5ccccc5)N4C(=O)C(NC(=O)C(C)NC)C3)c2)CCC2CCC(C(=O)NC(c3ccccc3)c3ccccc3)N2C1=O : what is it?
113

----------
# Test system: 885512-296-R-J2-PDC complex spheroid growth, % test/control
# measurement-description: Anticancer human tumor 885512-296-R-J2-PDC cell line growth inhibition [Asc];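 further: spheroids exposed to compounds for seven days; 100% = DMSO vehicle control wells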
# test-parameters: second compound 1 µM; first compound 3.16 µM; stronger effect = lower value
measurement-name: viability, T/C (%)
Give bare numbers, in %.

The cases that follow already have their viability, T/C on record.
C=CC(=O)N1CCN(c2nc(=O)n(-c3c(C)ccnc3C(C)C)c3nc(-c4c(O)cccc4F)c(F)cc23)C(C)C1 (stereo not drawn) + Cc1c(S(C)(=O)=O)c(-c2cc(F)cc(N3CCN(c4ccc(NS(=O)(=O)c5ccc(NC(CCN6CCC(C(=O)OCCCP(=O)(O)O)CC6)CSc6ccccc6)c(S(=O)(=O)C(F)(F)F)c5)cc4)CC3)c2)c(-c2ccc(Cl)cc2)n1C(C)C :: 85.7
C=C(F)C(=O)N1CCN(c2nc(OCC3CCCN3C)nc3c2CCN(c2cccc4cccc(Cl)c24)C3)CC1CC#N (stereo not drawn) + CNC(C)C(=O)NC1CN(S(=O)(=O)c2cccc(S(=O)(=O)N3CCC4CCC(C(=O)NC(c5ccccc5)c5ccccc5)N4C(=O)C(NC(=O)C(C)NC)C3)c2)CCC2CCC(C(=O)NC(c3ccccc3)c3ccccc3)N2C1=O :: 30.5
C#Cc1c(F)ccc2cc(O)cc(-c3ncc4c(N5CC6CCC(C5)N6)nc(OCC56CCCN5CC(F)C6)nc4c3F)c12 (stereo not drawn) + CNC(C)C(=O)NC1CN(S(=O)(=O)c2cccc(S(=O)(=O)N3CCC4CCC(C(=O)NC(c5ccccc5)c5ccccc5)N4C(=O)C(NC(=O)C(C)NC)C3)c2)CCC2CCC(C(=O)NC(c3ccccc3)c3ccccc3)N2C1=O :: 105
O=C(c1cc(Cc2n[nH]c(=O)c3ccccc23)ccc1F)N1CCN(C(=O)C2CC2)CC1 + Cc1c(S(C)(=O)=O)c(-c2cc(F)cc(N3CCN(c4ccc(NS(=O)(=O)c5ccc(NC(CCN6CCC(C(=O)OCCCP(=O)(O)O)CC6)CSc6ccccc6)c(S(=O)(=O)C(F)(F)F)c5)cc4)CC3)c2)c(-c2ccc(Cl)cc2)n1C(C)C :: 56.8
O=C(c1cc(Cc2n[nH]c(=O)c3ccccc23)ccc1F)N1CCN(C(=O)C2CC2)CC1 + CNC(C)C(=O)NC1CN(S(=O)(=O)c2cccc(S(=O)(=O)N3CCC4CCC(C(=O)NC(c5ccccc5)c5ccccc5)N4C(=O)C(NC(=O)C(C)NC)C3)c2)CCC2CCC(C(=O)NC(c3ccccc3)c3ccccc3)N2C1=O :: 55
C#Cc1c(F)ccc2cc(O)cc(-c3ncc4c(N5CC6CCC(C5)N6)nc(OCC56CCCN5CC(F)C6)nc4c3F)c12 (stereo not drawn) + Cc1c(S(C)(=O)=O)c(-c2cc(F)cc(N3CCN(c4ccc(NS(=O)(=O)c5ccc(NC(CCN6CCC(C(=O)OCCCP(=O)(O)O)CC6)CSc6ccccc6)c(S(=O)(=O)C(F)(F)F)c5)cc4)CC3)c2)c(-c2ccc(Cl)cc2)n1C(C)C :: 86
C=CC(=O)N1CCN(c2nc(=O)n(-c3c(C)ccnc3C(C)C)c3nc(-c4c(O)cccc4F)c(F)cc23)C(C)C1 (stereo not drawn) + CNC(C)C(=O)NC1CN(S(=O)(=O)c2cccc(S(=O)(=O)N3CCC4CCC(C(=O)NC(c5ccccc5)c5ccccc5)N4C(=O)C(NC(=O)C(C)NC)C3)c2)CCC2CCC(C(=O)NC(c3ccccc3)c3ccccc3)N2C1=O :: 79.2

// next item, viability, T/C requested
Reported viability, T/C for C=C(F)C(=O)N1CCN(c2nc(OCC3CCCN3C)nc3c2CCN(c2cccc4cccc(Cl)c24)C3)CC1CC#N (stereo not drawn) + Cc1c(S(C)(=O)=O)c(-c2cc(F)cc(N3CCN(c4ccc(NS(=O)(=O)c5ccc(NC(CCN6CCC(C(=O)OCCCP(=O)(O)O)CC6)CSc6ccccc6)c(S(=O)(=O)C(F)(F)F)c5)cc4)CC3)c2)c(-c2ccc(Cl)cc2)n1C(C)C : what is it?
19.5

----------
# Test system: 885512-296-R-J2-PDC complex spheroid growth, % test/control
# measurement-description: Anticancer human tumor 885512-296-R-J2-PDC cell line growth inhibition [Asc];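 further: spheroids exposed to compounds for seven days; 100% = DMSO vehicle control wells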
# test-parameters: second compound 0.316 µM; first compound 3 µM; stronger effect = lower value
measurement-name: viability, T/C (%)
One number for each entry, in %.

Record viability, T/C per entry; entries follow.
1. CCN1C(C(=O)NC23CCC(C(=O)O)(CC2)CC3)C(c2cccc(Cl)c2F)C2(C(=O)Nc3cc(Cl)ccc32)C12CCCCC2 (centres undefined) + CNC(C)C(=O)NC1CN(S(=O)(=O)c2cccc(S(=O)(=O)N3CCC4CCC(C(=O)NC(c5ccccc5)c5ccccc5)N4C(=O)C(NC(=O)C(C)NC)C3)c2)CCC2CCC(C(=O)NC(c3ccccc3)c3ccccc3)N2C1=O
2. Cc1nc(N2CCC3(CC2)COC(C)C3N)c(CO)nc1Sc1ccnc(N)c1Cl (centres undefined) + Cc1c(S(C)(=O)=O)c(-c2cc(F)cc(N3CCN(c4ccc(NS(=O)(=O)c5ccc(NC(CCN6CCC(C(=O)OCCCP(=O)(O)O)CC6)CSc6ccccc6)c(S(=O)(=O)C(F)(F)F)c5)cc4)CC3)c2)c(-c2ccc(Cl)cc2)n1C(C)C
3. CCN1C(C(=O)NC23CCC(C(=O)O)(CC2)CC3)C(c2cccc(Cl)c2F)C2(C(=O)Nc3cc(Cl)ccc32)C12CCCCC2 (centres undefined) + Cc1c(S(C)(=O)=O)c(-c2cc(F)cc(N3CCN(c4ccc(NS(=O)(=O)c5ccc(NC(CCN6CCC(C(=O)OCCCP(=O)(O)O)CC6)CSc6ccccc6)c(S(=O)(=O)C(F)(F)F)c5)cc4)CC3)c2)c(-c2ccc(Cl)cc2)n1C(C)C
4. Cc1nc(N2CCC3(CC2)COC(C)C3N)c(CO)nc1Sc1ccnc(N)c1Cl (centres undefined) + CNC(C)C(=O)NC1CN(S(=O)(=O)c2cccc(S(=O)(=O)N3CCC4CCC(C(=O)NC(c5ccccc5)c5ccccc5)N4C(=O)C(NC(=O)C(C)NC)C3)c2)CCC2CCC(C(=O)NC(c3ccccc3)c3ccccc3)N2C1=O

1: 57.8; 2: 37; 3: 39.8; 4: 38.9
